Entries and their pIC50
- Tested on: A549
- Experiment Description: Cytotoxicity against human A549 cells after 48 hrs by MTT assay
- Type: functional, cell-based
- Settings: A549, 48 h
pIC50: −log10 of the molar value.
Experimental Endpoint: pIC50

{"columns": ["Molecule", "Value Operator", "Data Value"],
 "data": [
  ["CC[C@]12C=CCN3CC[C@]4(C(=C(C(=O)OC)C1)Nc1cc(O)c([C@@H]5C=C[C@@]6(CC)CC(C(=O)OC)=C7Nc8cc(O)ccc8[C@@]78CCN5[C@@H]68)cc14)[C@@H]32 (relative stereo)", "=", 5.12],
  ["CC[C@]12C=CCN3CCc4c(n(c5ccccc45)[C@@H](c4cc5c(cc4O)NC4=C(C(=O)OC)C[C@]6(CC)C=CCN7CC[C@@]45[C@@H]76)C1)[C@@H]32", "=", 4.84],
  ["CC[C@]12C=CCN3CC[C@]4(C(=C(C(=O)OC)C1)Nc1cc(O)c([C@H]5C=C[C@@]6(CC)CC(C(=O)OC)=C7Nc8cc(O)ccc8[C@@]78CCN5[C@@H]68)cc14)[C@@H]32 (relative stereo)", "=", 4.91],
  ["CC[C@]12C=CCN3CCc4c(n(c5ccccc45)[C@@H](c4cc5c(cc4OC)NC4=C(C(=O)OC)C[C@]6(CC)C=CCN7CC[C@@]45[C@@H]76)C1)[C@@H]32 (relative stereo)", "<", 4.40]
]}

---

- Tested on: A549
- Experiment Description: Cytotoxicity against human A549 cells after 48 hrs by MTT assay
- Type: functional, cell-based
- Settings: A549, 48 h

{"columns": ["Molecule", "IC50 / µM"],
 "data": [
  ["C=C[C@]12C=C[C@@H](c3cc4c(cc3O)NC3=C(C(=O)OC)C[C@]5(CC)C=CCN6CC[C@@]34[C@@H]65)N3CC[C@@]4(c5ccccc5NC(=O)[C@]4(C(=O)OC)C1)[C@@H]32 (relative stereo)", 8.9],
  ["C=C[C@]12C=C[C@H](c3cc4c(cc3O)NC3=C(C(=O)OC)C[C@]5(CC)C=CCN6CC[C@@]34[C@@H]65)N3CC[C@@]4(c5ccccc5NC(=O)[C@]4(C(=O)OC)C1)[C@@H]32 (relative stereo)", 11]
]}

Numbers sourced from ChEMBL document CHEMBL3091450.
